Proto-oncogene tyrosine-protein kinase Src (Homo sapiens, UniProt P12931) pIC50, compiled from various sources.
pIC50: −log10 of the molar value.
property label: pIC50

>>> result("C=CC(=O)N1CCC(N2CC(C#Cc3c(-c4ccc(Oc5ccccc5)cc4)c4c(N)ncnc4n3C)C2)C1 (stereo not drawn)")
"6.00 to 8.00"
>>> result("CCCS(=O)(=O)Nc1ccc(F)c(C(=O)c2c[nH]c3ncc(-c4ccc(NC(C)=O)nc4)cc23)c1F")
"≥ 5.00"
>>> result("C=CC(=O)N1CCC(C#Cc2c(-c3ccc(Oc4ccccc4C#N)cc3)c3c(N)ncnc3n2C(C)C)CC1")
"6.00 to 8.00"
>>> result("CC(C)CS(=O)(=O)Nc1ccc(F)c(C(=O)c2c[nH]c3ncc(-c4ccc(F)cc4)cc23)c1F")
"≥ 5.00"
>>> result("COc1cc(Nc2cc(Oc3ccc(NC(=O)Nc4cc(C(C)(C)C)cc(NS(C)(=O)=O)c4OC)c4ccccc34)ccn2)ccc1S(=O)(=O)CCOCCOCCO")
6.71
>>> result("N#Cc1cnc2[nH]cc(C(=O)c3cccc(NS(=O)(=O)c4c(F)cccc4F)c3F)c2c1")
"≥ 5.00"
